tested on: 8505C; test: cells; type: functional, cell-based, Homo sapiens; settings: Homo sapiens, 8505C
Description: SANGER: Inhibition of human 8505C cell growth in a cell viability assay.
pIC50: −log10 of the molar value.
Measurement Type: pIC50

1) N#Cc1c(O)c2c(-c3ccc(-c4ccccc4O)cc3)csc2[nH]c1=O = < 5.99
2) CCN(CC)CCCCNc1ncc2cc(-c3cc(OC)cc(OC)c3)c(NC(=O)NC(C)(C)C)nc2n1 = < 5.70
3) Nc1cccc2c1CN(C1CCC(=O)NC1=O)C2=O (stereo not drawn) [LENALIDOMIDE] = < 5.30

---

tested on: NCI-H748; experiment: cells; format: functional, cell-based, Homo sapiens; details: nci-h748;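 also: growth inhibition of NCI-H748 cells, measured by a cell viability assay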
Description: SANGER: Inhibition of human NCI-H748 cell growth in a cell viability assay.
Measurement Type: IC50 (µM)

1) BLEOMYCIN = 75.2

---

Below, each entry is listed with its recorded pIC50.
tested on: HCC1143; experiment: cells; type: functional, cell-based, Homo sapiens; details: Homo sapiens, HCC1143;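 also: growth inhibition of human HCC1143 cells, read out with a cell viability assay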
Description: SANGER: Inhibition of human HCC1143 cell growth in a cell viability assay.
pIC50: −log10 of the molar value.
Measurement Type: pIC50

1) N#Cc1c(O)c2c(-c3ccc(-c4ccccc4O)cc3)csc2[nH]c1=O = < 5.99
2) COc1cccc2c1C(=O)c1c(O)c3c(c(O)c1C2=O)C[C@@](O)(C(=O)CO)C[C@@H]3O[C@H]1C[C@H](N)[C@H](O)[C@H](C)O1 = < 5.99
3) C=C(c1ccc(C(=O)O)cc1)c1cc2c(cc1C)C(C)(C)CCC2(C)C = < 5.10
4) Oc1ccc2ccccc2c1SSc1c(O)ccc2ccccc12 = < 4.49
5) CCC/C=C/C=C/C(=O)O[C@H]1/C(=C/C(=O)OC)C[C@H]2C[C@H]([C@@H](C)O)OC(=O)C[C@H](O)C[C@@H]3C[C@H](OC(C)=O)C(C)(C)[C@](O)(C[C@@H]4C/C(=C/C(=O)OC)C[C@H](/C=C/C(C)(C)[C@]1(O)O2)O4)O3 = < 8.10
6) Nc1ccn([C@@H]2O[C@H](CO)[C@@H](O)C2(F)F)c(=O)n1 = < 5.99
7) Cc1cc([N+](=O)[O-])ccc1NS(=O)(=O)c1cc(Cl)ccc1Cl = 5.74

---

Listed compounds paired with reported IC50
system: RL; assay: cells; assay type: functional, cell-based, Homo sapiens; settings: Homo sapiens, RL
Description: SANGER: Inhibition of human RL cell growth in a cell viability assay.
Measurement Type: IC50

1) COc1cc(-c2nn([C@H]3CC[C@H](N4CCN(C(C)=O)CC4)CC3)c3ncnc(N)c23)ccc1NC(=O)c1cc2ccccc2n1C = > 5.12 µM
2) N[C@@H](CSC(c1ccccc1)(c1ccccc1)c1ccccc1)C(=O)O = > 5.12 µM
3) CC(=O)O[C@H]1C(=O)[C@@]2(C)[C@H]([C@H](OC(=O)c3ccccc3)[C@]3(O)C[C@H](OC(=O)[C@H](O)[C@@H](NC(=O)c4ccccc4)c4ccccc4)C(C)=C1C3(C)C)[C@]1(OC(C)=O)CO[C@@H]1C[C@@H]2O = > 0.102 µM
4) Cc1ccc(-c2c(C(=O)CCl)n(CCCO)c3ncnc(N)c23)cc1 = > 4 µM
5) Nc1ccn([C@@H]2O[C@H](CO)[C@@H](O)C2(F)F)c(=O)n1 = > 1.02 µM

---

test system: VA-ES-BJ; assay: cells; type: functional, cell-based, Homo sapiens; settings: Homo sapiens, VA-ES-BJ;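 also: growth inhibition of the VA-ES-BJ cell line, read out by a cell viability assay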
Description: SANGER: Inhibition of human VA-ES-BJ cell growth in a cell viability assay.
Entries and their IC50
Measurement Type: IC50 (µM)

1. Cc1cc([N+](=O)[O-])ccc1NS(=O)(=O)c1cc(Cl)ccc1Cl = 1.23
2. O=C(O)c1ccc(-c2c[nH]c3ncc(-c4ccccc4)cc23)cc1C1CCCC1 [GSK-650394] = 9.04
3. CC(C)c1ccccc1Cc1cc(C(=O)Nc2ccc(S(=O)(=O)c3ccccc3C(C)(C)C)cc2)c(O)c(O)c1O = 0.0396

---

test system: MKN-7; experiment: cells; format: functional, cell-based, Homo sapiens; conditions: Homo sapiens, MKN-7
Description: SANGER: Inhibition of human MKN7 cell growth in a cell viability assay.
pIC50: −log10 of the molar value. Counter-ions that a name gives are not always drawn.
Quick list: pIC50 per entry.
Measurement Type: pIC50

1) COc1cccc2c1C(=O)c1c(O)c3c(c(O)c1C2=O)C[C@@](O)(C(=O)CO)C[C@@H]3O[C@H]1C[C@H](N)[C@H](O)[C@H](C)O1 = 6.16
2) COC1=CC(c2cc3ccccc3[nH]2)=N/C1=C\c1[nH]c(C)cc1C [OBATOCLAX MESYLATE] = 5.72

---

system: NCI-H1355; assay: cells; format: functional, cell-based, Homo sapiens; details: nci-h1355
Description: SANGER: Inhibition of human NCI-H1355 cell growth in a cell viability assay.
pIC50: −log10 of the molar value.
pIC50 by entry:
Measurement Type: pIC50

1) BLEOMYCIN = 5.09
2) CISPLATIN = 5.18

---

tested on: PFSK-1; assay: cells; type: functional, cell-based, Homo sapiens; settings: pfsk-1;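 also: cell viability assay measuring how strongly compounds suppress growth of human PFSK-1 cells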
Description: SANGER: Inhibition of human PFSK-1 cell growth in a cell viability assay.
Measurement Type: IC50

1) BLEOMYCIN = 33.4 µM

---

tested on: IGR-1; assay: cells; assay type: functional, cell-based, Homo sapiens; conditions: igr-1
Description: SANGER: Inhibition of human IGR-1 cell growth in a cell viability assay.
pIC50: −log10 of the molar value.
Measurement Type: pIC50

1. BLEOMYCIN = 5.63

---

The entries below are paired with their reported IC50.
system: RH-1; assay: cells; type: functional, cell-based, Homo sapiens; conditions: Homo sapiens, RH-1
Description: SANGER: Inhibition of human RH-1 cell growth in a cell viability assay.
Measurement Type: IC50

1. COc1cc2c(Nc3ccc(NC(=O)c4ccccc4)cc3)ncnc2cc1OCCCN1CCOCC1 = > 4 µM
2. Nc1cccc2c1CN(C1CCC(=O)NC1=O)C2=O (stereo not given) [LENALIDOMIDE] = > 5 µM
3. Cc1ccc(-c2c(C(=O)CCl)n(CCCO)c3ncnc(N)c23)cc1 = > 4 µM
4. CC[C@H](CO)Nc1nc(NCc2ccccc2)c2ncn(C(C)C)c2n1 = > 16 µM
5. C=C(c1ccc(C(=O)O)cc1)c1cc2c(cc1C)C(C)(C)CCC2(C)C = > 8 µM

---

system: TE-8; assay: cells; format: functional, cell-based, Homo sapiens; settings: Homo sapiens, TE-8;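 also: growth inhibition of TE-8 cells, measured with a cell viability readout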
Description: SANGER: Inhibition of human TE-8 cell growth in a cell viability assay.
pIC50: −log10 of the molar value.
Known pIC50 of a selection of compounds
Measurement Type: pIC50

1. C#Cc1cccc(Nc2ncnc3cc(OCCOC)c(OCCOC)cc23)c1 = < 5.70
2. COc1cccc2c1C(=O)c1c(O)c3c(c(O)c1C2=O)C[C@@](O)(C(=O)CO)C[C@@H]3O[C@H]1C[C@H](N)[C@H](O)[C@H](C)O1 = 8.12
3. CS(=O)(=O)c1ccc(C(=O)Nc2ccc(Cl)c(-c3ccccn3)c2)c(Cl)c1 = < 5.00
4. CO[C@H]1C[C@@H]2CC[C@@H](C)[C@@](O)(O2)C(=O)C(=O)N2CCCC[C@H]2C(=O)O[C@H]([C@H](C)C[C@@H]2CC[C@@H](OC(=O)C(C)(CO)CO)[C@H](OC)C2)CC(=O)[C@H](C)/C=C(\C)[C@@H](O)[C@@H](OC)C(=O)[C@H](C)C[C@H](C)/C=C/C=C/C=C/1C = < 6.70
5. N[C@@H](CSC(c1ccccc1)(c1ccccc1)c1ccccc1)C(=O)O = 6.14
6. CCN(CC)CCCCNc1ncc2cc(-c3cc(OC)cc(OC)c3)c(NC(=O)NC(C)(C)C)nc2n1 = < 5.70
7. Cc1cn(-c2cc(NC(=O)c3ccc(C)c(Nc4nccc(-c5cccnc5)n4)c3)cc(C(F)(F)F)c2)cn1 = < 5.70
8. Nc1ccn([C@@H]2O[C@H](CO)[C@@H](O)C2(F)F)c(=O)n1 = 8.10
9. CCC/C=C/C=C/C(=O)O[C@H]1/C(=C/C(=O)OC)C[C@H]2C[C@H]([C@@H](C)O)OC(=O)C[C@H](O)C[C@@H]3C[C@H](OC(C)=O)C(C)(C)[C@](O)(C[C@@H]4C/C(=C/C(=O)OC)C[C@H](/C=C/C(C)(C)[C@]1(O)O2)O4)O3 = < 8.10
10. Cc1ccc(-c2c(C(=O)CCl)n(CCCO)c3ncnc(N)c23)cc1 = 5.71
11. COc1cc(N2CCN(C)CC2)ccc1Nc1ncc2c(n1)N(C)c1ccccc1C(=O)N2C = < 5.10

---

Entries annotated with measured IC50
tested on: GOTO; assay: cells; format: functional, cell-based, Homo sapiens; conditions: goto
Description: SANGER: Inhibition of human GOTO cell growth in a cell viability assay.
Measurement Type: IC50 (nM)

1) BLEOMYCIN = 550
2) CISPLATIN = 3090

---

Each entry below carries its recorded pIC50.
tested on: CAKI-1; assay: cells; format: functional, cell-based, Homo sapiens; settings: Homo sapiens, CAKI-1
Description: SANGER: Inhibition of human CAKI-1 cell growth in a cell viability assay.
pIC50: −log10 of the molar value.
Measurement Type: pIC50

1) Nc1cccc2c1CN(C1CCC(=O)NC1=O)C2=O (centres undefined) [LENALIDOMIDE] = < 5.30
2) COc1cc2c(Nc3ccc(NC(=O)c4ccccc4)cc3)ncnc2cc1OCCCN1CCOCC1 = < 5.40
3) COc1cccc2c1C(=O)c1c(O)c3c(c(O)c1C2=O)C[C@@](O)(C(=O)CO)C[C@@H]3O[C@H]1C[C@H](N)[C@H](O)[C@H](C)O1 = 6.43
4) N#Cc1c(O)c2c(-c3ccc(-c4ccccc4O)cc3)csc2[nH]c1=O = < 5.99
